Exercise: for every item that follows, state its recorded IC50.
- experimental.system: human SARM1(50-724) (Homo sapiens (Human))
- Sequence (Q6SZW1 50-724): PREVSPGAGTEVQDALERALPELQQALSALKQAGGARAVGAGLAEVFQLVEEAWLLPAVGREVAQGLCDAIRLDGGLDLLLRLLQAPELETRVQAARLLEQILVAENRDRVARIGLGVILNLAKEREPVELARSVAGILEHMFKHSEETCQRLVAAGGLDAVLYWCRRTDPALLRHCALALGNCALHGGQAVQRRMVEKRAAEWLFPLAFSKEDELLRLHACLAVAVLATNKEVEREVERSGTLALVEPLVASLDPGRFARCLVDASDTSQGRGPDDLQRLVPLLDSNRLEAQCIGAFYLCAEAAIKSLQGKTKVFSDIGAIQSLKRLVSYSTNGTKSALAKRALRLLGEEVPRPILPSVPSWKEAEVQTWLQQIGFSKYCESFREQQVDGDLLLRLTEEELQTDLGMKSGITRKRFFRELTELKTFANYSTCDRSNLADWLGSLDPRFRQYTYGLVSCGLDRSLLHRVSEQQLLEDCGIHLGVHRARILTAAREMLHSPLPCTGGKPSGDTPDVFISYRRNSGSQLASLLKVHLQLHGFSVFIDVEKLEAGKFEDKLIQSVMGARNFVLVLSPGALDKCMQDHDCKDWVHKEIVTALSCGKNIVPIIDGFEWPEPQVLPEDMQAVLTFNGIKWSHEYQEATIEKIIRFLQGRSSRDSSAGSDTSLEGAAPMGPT
- test: SARM1 NAD hydrolase biological assay (HPLC readout of NAD and NAM peak areas)
- Assay type: biochemical
- reported.conditions: 40 nM human SARM1(50-724), 0.3 mM NMN, 20 μM NAD, 60 minutes at room temperature; class symbols; read-out: Average IC50

Field: example entries. Status: answers known.
molecule="Cc1cnccc1Cc1c[nH]c(C(O)C(F)(F)F)n1 (single isomer, unassigned)" assay_value="1 to 10 µM"
molecule="O[C@@H](c1ncc(Cc2ccncc2)[nH]1)C(F)(F)F (single isomer, unassigned)" assay_value="< 1 µM"
molecule="N[C@@H](c1nc(Cc2ccncc2)cs1)C(F)(F)F [Example 19a]" assay_value="1 to 10 µM"
molecule=Cc1[nH]c(CC(F)(F)F)nc1Cc1ccncc1 assay_value="10 to 100 µM"

# evaluate next
# input Quick one: IC50 of OC(c1nc(Cc2ccncc2)c[nH]1)c1cncs1 (single isomer, unassigned) ?
# output 1 to 10 µM
